Hello, the source for this data is patent US20130295102A1, in case you need it.

This section presents binders with their documented koff values.
- TARGET OR TEST SYSTEM: T1, Human Factor P (human, UniProt P27918 29-469)
- T1 construct: Bought protein (Complement Technology cat# A139) in SET and Biacore; Factor P of human serum in the functional assays; also called FP; human FP
- T1 sequence (P27918 29-469 limits assumed): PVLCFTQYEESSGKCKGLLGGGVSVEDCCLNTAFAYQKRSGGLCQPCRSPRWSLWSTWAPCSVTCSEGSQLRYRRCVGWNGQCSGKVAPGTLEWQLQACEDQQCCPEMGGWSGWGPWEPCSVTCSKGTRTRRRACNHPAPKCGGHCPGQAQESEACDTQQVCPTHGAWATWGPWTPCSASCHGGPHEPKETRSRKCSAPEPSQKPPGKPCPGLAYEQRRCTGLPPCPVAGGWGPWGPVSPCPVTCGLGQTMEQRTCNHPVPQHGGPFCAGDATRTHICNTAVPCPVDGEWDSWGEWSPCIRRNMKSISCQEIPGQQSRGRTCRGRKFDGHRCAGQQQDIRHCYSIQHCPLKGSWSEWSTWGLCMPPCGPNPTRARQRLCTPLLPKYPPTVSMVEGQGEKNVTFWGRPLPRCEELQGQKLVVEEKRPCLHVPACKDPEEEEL
- EXPERIMENTAL DETAILS: Biacore SPR, captured Factor P

BINDER: NVS809 (Fab, V domains shown) VH: EVQLVQSGAEVKKPGSSVKVSCKASGGTFSSYAISWVRQAPGQGLEWMGRIIPIFGTANYAQKFQGRVTITADESTSTAYMELSSLRSEDTAVYYCARHGGYYFDSWGQGTLVTVSS VL: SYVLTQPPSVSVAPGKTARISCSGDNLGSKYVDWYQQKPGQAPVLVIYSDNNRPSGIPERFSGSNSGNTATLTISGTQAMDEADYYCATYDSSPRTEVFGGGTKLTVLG
koff, s⁻¹: 0.000104

BINDER: NVS967 (Fab, V domains shown, Disulfide-bridged Fab; also called Fab NVS967) VH: EVQLVQSGAEVKKPGASVKVSCKASGYTFTSHYMHWVRQAPGQGLEWMGNINPVDGGTEYAQKFQGRVTMTRDTSISTAYMELSSLRSEDTAVYYCARDGIEHGGHYYWGYLFDIWGQGTLVTVSS VL: SYVLTQPPSVSVAPGKTARISCSGDSIREYYVHWYQQKPGQAPVLVIGDDTNRPSGIPERFSGSNSGNTATLTISRAQAGDEADYYCAAWDFSPAIVFGGGTKLTVLG
koff, s⁻¹: 9e-05

BINDER: NVS807 (Fab, V domains shown) VH: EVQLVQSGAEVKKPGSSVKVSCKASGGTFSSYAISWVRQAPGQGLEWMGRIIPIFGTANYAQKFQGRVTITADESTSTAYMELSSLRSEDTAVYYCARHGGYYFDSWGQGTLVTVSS VL: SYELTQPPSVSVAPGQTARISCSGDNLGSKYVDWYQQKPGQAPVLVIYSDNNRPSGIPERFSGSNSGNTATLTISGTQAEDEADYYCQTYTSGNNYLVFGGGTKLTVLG
koff, s⁻¹: 0.000123
